- Read-out: Thrombomodulin, THBD (gene 7056)
- method.notes: BSK_3C_Thrombomodulin: BioMAP Diversity Plus: 3C Assay for Thrombomodulin Biomarker Activity (AID 2283029)
- condition.set: primary human endothelial cells (HUVEC); actives raise or lower the signal
Activity calls are given as the source filed them. Rule for the calls: active = hit-call score of the fitted dose curve at least 0.9, where 1 is the maximum; inactive = score below 0.9.
Use one of these outcomes when replying: active, inactive

Take a look at these entries with their results.
Nc1ccc(S(=O)(=O)c2ccc(N)cc2)cc1	inactive
COc1cc(-c2nc(NC(=O)c3cc4cc(C)cc(C)c4n3CC(=O)O)sc2CCC2CCCCC2)c(OC)cc1Cl	active
Clc1cc(Cl)c(Cl)cc1Cl	inactive
COC(=O)c1ccc(O)cc1	inactive
CCCCCCC(=O)OCC	inactive
O=[N+]([O-])C(CO)(CO)CO	inactive

Check the results log: what was the call for COc1cc(C=O)ccc1O ?
inactive

Check the results log: what was the call for Oc1ccc2ccccc2c1N=Nc1ccccc1 ?
inactive

Check the results log: what was the call for CC1(C)NC(=O)NC1=O ?
inactive

Check the results log: what was the call for O=c1[nH]cc(F)c(=O)[nH]1 ?
inactive

Check the results log: what was the call for CNC(=O)[C@H]1O[C@@H](n2cnc3c(NCc4cc(Cl)ccc4OCc4cc(C)no4)ncnc32)[C@H](O)[C@@H]1N ?
inactive

Check the results log: what was the call for CCOc1ccc2c(c1)C(C)=CC(C)(C)N2 ?
inactive

Check the results log: what was the call for C=CCc1ccc(O)c(OC)c1 ?
inactive

----------
- experimental.system: human Matrix Metalloproteinase-9 (MMP9), MMP9 (gene 4318) (UniProt P14780)
- Sequence (P14780 whole entry, looked up): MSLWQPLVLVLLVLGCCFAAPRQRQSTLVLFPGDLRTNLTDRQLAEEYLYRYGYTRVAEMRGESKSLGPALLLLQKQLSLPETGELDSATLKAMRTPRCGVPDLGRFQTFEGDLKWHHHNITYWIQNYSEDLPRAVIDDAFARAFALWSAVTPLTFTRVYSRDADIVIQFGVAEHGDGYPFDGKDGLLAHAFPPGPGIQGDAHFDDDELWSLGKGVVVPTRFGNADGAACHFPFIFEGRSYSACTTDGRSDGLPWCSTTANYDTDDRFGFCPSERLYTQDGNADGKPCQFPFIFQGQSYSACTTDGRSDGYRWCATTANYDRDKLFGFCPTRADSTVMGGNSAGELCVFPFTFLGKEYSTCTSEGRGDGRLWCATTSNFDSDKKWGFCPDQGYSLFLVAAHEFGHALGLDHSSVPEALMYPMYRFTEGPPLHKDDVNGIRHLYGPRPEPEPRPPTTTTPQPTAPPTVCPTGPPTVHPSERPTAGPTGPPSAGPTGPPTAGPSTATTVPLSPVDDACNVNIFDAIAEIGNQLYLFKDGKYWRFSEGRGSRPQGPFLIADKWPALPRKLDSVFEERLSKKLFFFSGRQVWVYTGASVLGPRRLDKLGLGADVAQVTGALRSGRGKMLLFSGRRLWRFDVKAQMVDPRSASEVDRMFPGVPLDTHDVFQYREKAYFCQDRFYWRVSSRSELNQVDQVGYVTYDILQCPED
- method.notes: NVS_ENZ_hMMP9: NovaScreen (NVS) Enzymatic Assay for human Matrix Metalloproteinase-9 (MMP9) (AID 2283190);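 note: cell-free recombinant MMP9 protease activity read by fluorescent substrate signal; active means inhibition seen as loss of fluorescence signal versus DMSO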
Results filed as inconclusive are left out. The source made the active and inactive calls. How the source made its calls: active means hit-call score of the fitted dose curve at least 0.9, where 1 is the maximum; inconclusive means response in the unintended direction; inactive means score below 0.9.
Use one of these outcomes when replying: active, inactive

Take a look at these entries with their results.
CCCCc1ccc2c(n1)[C@@H](c1ccc(OC)cc1C[C@H](C)C(=O)O)[C@H](C(=O)O)[C@H]2c1ccc2c(c1)OCO2	inactive
Nc1ccccc1N	inactive
NS(=O)(=O)c1cc2c(cc1Cl)NCNS2(=O)=O	inactive
O=C(O)Cc1ccccc1Nc1c(Cl)cccc1Cl	inactive

Next, consider the following compound.
Check the results log: what was the call for Cc1c(C(=O)O)c(O)cc2c1C(=O)c1c(O)c([C@@H]3O[C@H](CO)[C@@H](O)[C@H](O)[C@H]3O)c(O)c(O)c1C2=O ?
active

----------
- method.notes: ATG_ERE_CIS: Attagene CIS-FACTORIAL HepG2 Assay for Estrogen Response Element (ERE) (AID 2282940)
- condition.set: HepG2 ERE cis-reporter, Attagene RNA transcript; actives raise or lower the signal
Active and inactive are the calls of the source. Rule for the calls: active = hit-call score of the fitted dose curve at least 0.9, where 1 is the maximum; inactive = score below 0.9.
quantity.measured: AC50

Here are 5 compounds together with their reported answers.
O=c1c(O)c(-c2ccc(O)c(O)c2)oc2cc(O)cc(O)c12	25.8 µM (active)
CC(=O)Oc1ccccc1C(=O)O	inactive
CC1(C)NC(=O)NC1=O	26.3 µM (active)
COCCOCCOC	inactive
O=C(O)CCCCC(=O)O	inactive

Data request, read-out AC50, for Oc1ccc2ccccc2c1N=Nc1ccccc1
4.52 µM (active)

Data request, read-out AC50, for COc1cc(S(=O)(=O)O)c(C)cc1N=Nc1c(O)ccc2cc(S(=O)(=O)O)ccc12
inactive

Data request, read-out AC50, for CCCCCCC(=O)OCC
34.7 µM (active)

Data request, read-out AC50, for CCOC(=O)CCC(=O)OCC
inactive

Data request, read-out AC50, for Oc1ccc2c(c1)OC[C@@H](N1CCC(O)(c3ccc(F)cc3)CC1)[C@H]2O
inactive

Data request, read-out AC50, for CCCCOC(=O)CCCCCCCCC(=O)OCCCC
inactive

Data request, read-out AC50, for COCCOC[C@H](CC1(C(=O)NC2CCC(C(=O)O)CC2)CCCC1)C(=O)Oc1ccc2c(c1)CCC2 (some centres undefined)
inactive

Data request, read-out AC50, for Cc1ccc(C(C)C)c(O)c1
inactive

Data request, read-out AC50, for CC(=O)C(C)=CC1C(C)=CCCC1(C)C (centres undefined)
33.4 µM (active)

----------
- method.notes: LTEA_HepaRG_LDH_cytotoxicity: Cytotoxicity Assessment in the Life Technologies and Expression Analysis (LTEA) Assay (AID 2283563)
Activity calls are given as the source filed them. The calls were made as follows: active = hit-call score of the fitted dose curve at least 0.9, where 1 is the maximum; inconclusive = response in the unintended direction; inactive = score below 0.9.
Use one of these outcomes when replying: yes (1) for active, no (0) for inactive

COc1cc(-c2nc(NC(=O)c3cc4cc(C)cc(C)c4n3CC(=O)O)sc2CCC2CCCCC2)c(OC)cc1Cl	yes (1)
Cc1cc(=O)[nH]c(=S)[nH]1	no (0)
NS(=O)(=O)c1cc2c(cc1Cl)NCNS2(=O)=O	no (0)

Check the results log: what was the call for CC(=O)OCCOCCOCCOC(C)=O ?
no (0)

Check the results log: what was the call for COc1cc(C=O)ccc1O ?
no (0)

Check the results log: what was the call for CCCCCCCCCCCCCCCCCC(=O)O ?
no (0)

Check the results log: what was the call for CCNc1cccc(C)c1 ?
no (0)

----------
- Read-out: Lipoprotein lipase (LPL), LPL (gene 4023)
- method.notes: LTEA_HepaRG_LPL: Life Technologies and Expression Analysis (LTEA) Assay for Lipoprotein lipase (LPL) using HepaRG (AID 2283515)
- condition.set: mRNA level, 48 h; actives raise or lower the signal
Activity calls are given as the source filed them. Rule for the calls: active = hit-call score of the fitted dose curve at least 0.9, where 1 is the maximum; inactive = score below 0.9.
Use one of these outcomes when replying: True (active), False (inactive)

Take a look at these entries with their results.
CNC(=O)[C@H]1O[C@@H](n2cnc3c(NCc4cc(Cl)ccc4OCc4cc(C)no4)ncnc32)[C@H](O)[C@@H]1N	False
CC(=O)OC/C=C(\C)CCC=C(C)C	False
CC(CO)OC(C)CO (centres undefined) (tested in a mixture with another compound)	False
CCCc1cc(=O)[nH]c(=S)[nH]1	False
CNCc1cc(F)ccc1Oc1ccc(Cl)c(Cl)c1	False

Check the results log: what was the call for NCCO ?
False

Check the results log: what was the call for Cc1ccc(C(C)C)c(O)c1 ?
False

Check the results log: what was the call for CCc1c(C(=O)NN2CCCCC2)nn(-c2ccc(Cl)cc2Cl)c1-c1ccc(Br)cc1 ?
True

----------
- method.notes: ATG_EGR_CIS: Attagene CIS-FACTORIAL HepG2 Assay for human Early Growth Response 1 (EGR1) (AID 2282938)
- condition.set: HepG2 Attagene CIS-FACTORIAL EGR reporter mRNA; actives raise or lower the signal
The source made the active and inactive calls. The calls were made as follows: active = hit-call score of the fitted dose curve at least 0.9, where 1 is the maximum; inactive = score below 0.9.
Use one of these outcomes when replying: 1 (active), -1 (inactive)

CCCCCCCCCCCC(=O)OC	-1
CCCCCCC(=O)OCC	-1
CC1=C(/C=C/C(C)=C/C=C/C(C)=C/CO)C(C)(C)CCC1	1

Check the results log: what was the call for CN1CCCC1=O ?
-1

Check the results log: what was the call for Cc1cccc(C)c1O ?
-1

Check the results log: what was the call for COc1ccc(S(=O)(=O)N2C(=O)[C@@](c3ccccc3OC)(N3C[C@H](O)C[C@H]3C(=O)N(C)C)c3cc(Cl)ccc32)c(OC)c1 ?
1

Check the results log: what was the call for COC(=O)c1ccc(O)cc1 ?
-1

Check the results log: what was the call for COCCOC[C@H](CC1(C(=O)NC2CCC(C(=O)O)CC2)CCCC1)C(=O)Oc1ccc2c(c1)CCC2 (stereo partly drawn) ?
-1

----------
- Read-out: Apolipoprotein A-V (APOA5) gene, APOA5 (gene 116519)
- method.notes: LTEA_HepaRG_APOA5: Life Technologies and Expression Analysis (LTEA) Assay for Apolipoprotein A-V (APOA5) gene using HepaRG (AID 2283474)
- condition.set: mRNA level, 48 h; actives raise or lower the signal
Activity calls are given as the source filed them. How the source made its calls: active means hit-call score of the fitted dose curve at least 0.9, where 1 is the maximum; inactive means score below 0.9.
Use one of these outcomes when replying: active, inactive

Check the results log: what was the call for NS(=O)(=O)c1cc2c(cc1Cl)NCNS2(=O)=O ?
inactive

Check the results log: what was the call for C=CCc1ccc(O)c(OC)c1 ?
inactive

Check the results log: what was the call for Cc1ccccc1Cl ?
inactive

Check the results log: what was the call for O=C(N[C@@H](Cc1ccccc1)[C@@H](O)C(=O)N1C[C@@H](O)[C@@H](O)C1)c1cc2cc(Cl)ccc2[nH]1 ?
inactive

Check the results log: what was the call for Cc1cccc([N+](=O)[O-])c1C ?
inactive

----------
- method.notes: BSK_CASM3C_Proliferation: Cell Proliferation Assessment in the BioMAP Diversity Plus: CASM3C Assay (AID 2283047);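 note: sulforhodamine B total protein stain as relative cell number at 560 nm; sub-confluent cells exposed 48 h before staining; fitted both ways against DMSO so gain or loss of cell number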
- condition.set: primary human coronary artery smooth muscle cells
Calls of active or inactive are those of the source. Rule for the calls: active = hit-call score of the fitted dose curve at least 0.9, where 1 is the maximum; inactive = score below 0.9.
quantity.measured: AC50

Here are 5 compounds together with their reported answers.
CCCCN(CCCC)CCCC	inactive
CC(=O)OCCOCCOCCOC(C)=O	inactive
CC1(C)CC(N=C=O)CC(C)(CN=C=O)C1 (configuration not stated)	inactive
CNCc1cc(F)ccc1Oc1ccc(Cl)c(Cl)c1	22 µM (active)
CC(C)(C)c1cc(O)c(C(C)(C)C)cc1O	inactive

Data request, read-out AC50, for Nc1ccc2c(c1)C(=O)c1ccccc1C2=O
14.3 µM (active)

Values were extracted from PubChem BioAssay (EPA / NIEHS).
